Hey, just so you know, these numbers are from paper PMC11103505.

Listing of recorded pKd by entry.
Target: T1, recombinant mouse AXL protein (mouse, UniProt Q00993 19-445)
T1 chain: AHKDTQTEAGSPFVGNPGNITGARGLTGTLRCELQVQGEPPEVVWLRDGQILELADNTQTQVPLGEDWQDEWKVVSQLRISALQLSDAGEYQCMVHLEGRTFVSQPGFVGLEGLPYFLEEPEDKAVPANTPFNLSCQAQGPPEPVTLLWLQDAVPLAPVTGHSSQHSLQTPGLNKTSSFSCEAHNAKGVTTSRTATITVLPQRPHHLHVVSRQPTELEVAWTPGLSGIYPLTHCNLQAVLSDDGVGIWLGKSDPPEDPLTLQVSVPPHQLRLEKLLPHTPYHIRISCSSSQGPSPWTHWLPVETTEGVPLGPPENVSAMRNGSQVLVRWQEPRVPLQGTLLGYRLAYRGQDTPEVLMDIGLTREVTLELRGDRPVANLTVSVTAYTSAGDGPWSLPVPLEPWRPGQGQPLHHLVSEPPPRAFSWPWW
Experiment: SPR
pKd: −log10 of the molar value.

Binder	pKd
anti-AXL single domain antibody sdAb4 (VHH) VHH: QVQLQESGGGLVQPGGSLRLSCVASGSIFSIYAMGWYRQAPGKQRELVAGISSGGSTNYADSVKGRFTISRDNAKNTVYLQMNSLKPEDTAVYYCNYDLVKAVTGEYDYWGQGTQVTVSS	6.27
anti-AXL single domain antibody sdAb12 (VHH) VHH: QVQLQESGGGLVKPGGSLRLSCVASGSIFSIYAMGWYRQAPGKQRELVAGISSGGSTNYADSVKGRFTISRDNAKNTVYLQMNSLKPEDTAVYYCNYDLVEAVTGEYDYWGQGTQVTVSS	6.45
anti-AXL single domain antibody sdAb25 (VHH) VHH: QVQLQESGGGLVQPGGSLRLSCVASGSIFSIYAMGWYRQAPGKQRELVAGISSGGSTNYADSVKGRFTISRDNAKNTVYLQMNSLKPEDTAVYYCNYDLVEAVTGEYDYWGQGTQVTVSS	6.36
anti-AXL single domain antibody sdAb19 (VHH) VHH: QVQLQESGGGMVQPGGSLRLSCAASGFTFTSYDMTWLRQTPGKGPEWVSTISTGGLRTYYGNSVKGRFIISRDNTKNTLYLQMNSLKPEDTALYYCARGPFTVADPRRGQGTQVTVSS	7.93
